Target: GST-human TopBP1 BRCT5 R681E/K682E (human, UniProt Q92547 641-746, R681E | K682E)
Sequence (Q92547 641-746 R681E/K682E): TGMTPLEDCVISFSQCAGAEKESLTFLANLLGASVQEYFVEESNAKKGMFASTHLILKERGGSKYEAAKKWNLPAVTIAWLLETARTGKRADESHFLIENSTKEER
Experiment: fluorescence polarisation
Square brackets hold non-standard residues; d marks the D form. * marks the point of attachment. FITC = O=C1OC2(c3ccc(O)cc3Oc3cc(O)ccc32)c2ccc(NC(=S)*)cc21; pS = N[C@@H](COP(=O)(O)O)C(=O)O
Measured property: pKd
Answers are plain numbers, as −log10 of the molar value.

Qu. pKd for {FITC}-DTDFVPP[pS]PEEII-NH2 [FITC-labelled BLM pSer304 peptide (FITC-DTDFVPPpSPEEII-NH2)] ?
Ans. 4.35
